# Tested on: PqsR (PqsR-controlled pqsA promoter, PA14 mCTX::PpqsA-lux)
# Test name: Bioluminescent reporter assay, PA14 mCTX::PpqsA-lux
# Assay type: cell-based
# Condition summary: Pseudomonas aeruginosa, PA14, read-out: IC50 (μM) PA14 mCTX::PpqsA-lux
Please note: IC50 exactly at 0.1 µM is rule not met. Only values below 0.1 µM get rule met.

> print(dat)
                                   compound         class
1  CC(C)(C)n1c(NCC(O)COc2ccc(CC#N)cc2)nc2ccc(Cl)cc21 (centres unmarked)  rule not met

Decide: IC50 of CC(C)n1c(NCC(O)COc2ccc(CC#N)c(F)c2)nc2ccc(Cl)cc21 (centres unmarked) strictly below 0.1 µM?
rule met

And what about the compound N#CCc1ccc(OCC(O)CNc2nc3ccc(Cl)cc3n2C2COC2)cc1 (centres unmarked) ?
rule not met

And what about the compound CC(C)n1c(NCC(O)COc2ccc(CC#N)cc2F)nc2ccc(Cl)cc21 (centres unmarked) ?
rule not met
